# reported pKd; entries follow
- TARGET OF ASSAY: Human BCMA (human) (UniProt Q02223)
- MEASUREMENT PROTOCOL: SPR, IgG immobilised, huBCMA analyte, 37 C
pKd: −log10 of the molar value.
OBSERVED PROPERTY: pKd

[[record]]
binder = "L3.PY/L1.FF/H2.QL (antibody, V domains shown, IgG) VH: EVQLLESGGGLVQPGGSLRLSCAASGFTFGSYAMTWVRQAPGKGLEWVSAISGSGGNTFYADQLKGRFTISRDNSKNTLYLQMNSLRAEDTAVYYCARVSPIASGMDYWGQGTLVTVSS VL: EIVLTQSPGTLSLSPGERATLSCRASQSVSSFFLAWYQQKPGQAPRLLIYGASSRATGIPDRFSGSGSGTDFTLTISRLEPEDFAVYYCQHYPYPPSFTFGQGTKVEIK"
observed_property = "pKd"
measured_number = 9.40

[[record]]
binder = "L3.PY/L3.KF/H3.AQ (antibody, V domains shown, IgG) VH: EVQLLESGGGLVQPGGSLRLSCAASGFTFGSYAMTWVRQAPGKGLEWVSAISGSGGNTFYADSVKGRFTISRDNSKNTLYLQMNSLRAEDTAVYYCARVSPIAAQMDYWGQGTLVTVSS VL: EIVLTQSPGTLSLSPGERATLSCRASQSVSSSYLAWYQQKPGQAPRLLIYGASSRATGIPDRFSGSGSGTDFTLTISRLEPEDFAVYYCKFYPYPPSFTFGQGTKVEIK"
observed_property = "pKd"
measured_number = 9.19

[[record]]
binder = "L3.PY/L1.FF/H3.TAQ (antibody, V domains shown, IgG) VH: EVQLLESGGGLVQPGGSLRLSCAASGFTFGSYAMTWVRQAPGKGLEWVSAISGSGGNTFYADSVKGRFTISRDNSKNTLYLQMNSLRAEDTAVYYCTRVSPIAAQMDYWGQGTLVTVSS VL: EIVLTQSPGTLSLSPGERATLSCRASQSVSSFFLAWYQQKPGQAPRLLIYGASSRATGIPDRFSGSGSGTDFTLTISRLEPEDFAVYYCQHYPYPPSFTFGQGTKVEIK"
observed_property = "pKd"
measured_number = 9.27

[[record]]
binder = "L3.PY/L3.KY/H2.HA (antibody, V domains shown, IgG) VH: EVQLLESGGGLVQPGGSLRLSCAASGFTFGSYAMTWVRQAPGKGLEWVSAISHAGGNTFYADSVKGRFTISRDNSKNTLYLQMNSLRAEDTAVYYCARVSPIASGMDYWGQGTLVTVSS VL: EIVLTQSPGTLSLSPGERATLSCRASQSVSSSYLAWYQQKPGQAPRLLIYGASSRATGIPDRFSGSGSGTDFTLTISRLEPEDFAVYYCKYYPYPPSFTFGQGTKVEIK"
observed_property = "pKd"
measured_number = 9.31

[[record]]
binder = "L3.PY/L3.KF/H2.QL (antibody, V domains shown, IgG) VH: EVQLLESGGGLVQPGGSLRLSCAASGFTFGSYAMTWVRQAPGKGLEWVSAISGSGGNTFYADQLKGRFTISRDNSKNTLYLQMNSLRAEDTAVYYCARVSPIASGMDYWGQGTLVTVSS VL: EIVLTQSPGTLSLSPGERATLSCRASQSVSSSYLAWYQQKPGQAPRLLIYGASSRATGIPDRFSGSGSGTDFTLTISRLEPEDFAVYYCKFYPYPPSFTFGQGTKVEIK"
observed_property = "pKd"
measured_number = 9.22

